tgt: T1, mTfR-1 S328A on Expi293 cells (mouse, UniProt Q62351 1-763)
T1 construct: whole, on cells
experimental protocol: FACS, transfected Expi293 cells
Listing of recorded % double-positive cells vs WT by entry.
Use % as the unit, but write only the number.

Consider the reported % double-positive cells vs WT for these binders:
{"binder": "8D3 antibody (anti-mouse TfR-1 control; 8D3-hFc formatted antibody) (antibody, V domains shown) VH: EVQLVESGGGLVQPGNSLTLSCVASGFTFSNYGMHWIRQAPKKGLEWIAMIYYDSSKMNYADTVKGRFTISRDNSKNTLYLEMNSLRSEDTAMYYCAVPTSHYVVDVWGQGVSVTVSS VL: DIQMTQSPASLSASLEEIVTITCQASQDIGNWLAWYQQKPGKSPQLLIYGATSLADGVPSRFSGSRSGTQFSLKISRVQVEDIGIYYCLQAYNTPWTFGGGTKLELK", "unit abbrev": "%", "% double-positive cells vs WT": 141}
{"binder": "Clone C variant 13 VNAR-hFc (Fc fusion, not shown: a dimerising Fc or GST, also called Clone C v13; Clone C var; 13) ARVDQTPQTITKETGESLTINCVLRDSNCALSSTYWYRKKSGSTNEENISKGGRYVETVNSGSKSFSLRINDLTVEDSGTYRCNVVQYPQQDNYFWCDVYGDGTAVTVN", "unit abbrev": "%", "% double-positive cells vs WT": 22}
{"binder": "Clone C VNAR-hFc fusion (Fc fusion, not shown: a dimerising Fc or GST, bivalent VNAR-Fc; also called Clone C-hFc) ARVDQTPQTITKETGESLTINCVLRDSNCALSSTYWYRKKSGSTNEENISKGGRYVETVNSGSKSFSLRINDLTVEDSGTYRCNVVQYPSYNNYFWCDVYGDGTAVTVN", "unit abbrev": "%", "% double-positive cells vs WT": 50}

So what's the measured % double-positive cells vs WT for this one? Clone C variant 18 VNAR-hFc (Fc fusion, not shown: a dimerising Fc or GST, also called Clone C v18; Clone C var; 18) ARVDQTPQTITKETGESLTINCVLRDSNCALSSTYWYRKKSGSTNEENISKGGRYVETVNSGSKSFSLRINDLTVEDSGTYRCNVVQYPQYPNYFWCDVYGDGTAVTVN
20
